Tested on: MV4-11 cells
Assay procedure: Antiproliferation assay
Format: cell-based, human
Measurement context: Homo sapiens, MV4-11, read-out: Antiproliferative activity EC50, MV4-11
Experimental endpoint: EC50 (nM)
// units = nM; emit number, no label

Molecule: CO[C@H]1/C=C\C=C(/C)C(=O)NC2=CC(=O)C(NCCN(C)C)=C(C[C@@H](C)C[C@H](OC)[C@H](O)[C@@H](C)/C=C(\C)[C@@H]1OC(N)=O)C2=O [Alvespimycin, alvespimycin]
EC50 (nM): 90

Continue with the next molecule.
Please report the measured EC50 for C=CCNC1=C2C[C@@H](C)C[C@H](OC)[C@H](O)[C@@H](C)/C=C(\C)[C@H](OC(N)=O)[C@@H](OC)/C=C\C=C(/C)C(=O)NC(=CC1=O)C2=O [Tanespimycin, tanespimycin] 520

====

System: SKNO-1 cells
Assay procedure: Antiproliferation assay
Assay type: cell-based, human
Measurement context: read-out: Antiproliferative activity EC50, SKNO-1; SKNO-1
Experimental endpoint: pEC50
pEC50 is defined as minus the log10 of a concentration measured in mol/L.

Please report the measured pEC50 for C[C@@H]1C[C@H]2[C@@H]3CCC4=CC(=O)C=C[C@]4(C)[C@@]3(F)[C@@H](O)C[C@]2(C)[C@@]1(O)C(=O)COP(=O)(O)O [Dex-P, dexamethasone-21-phosphate] 7.77

====

Entries and their EC50
Tested on: SKNO-1 cells
Assay procedure: Antiproliferation assay
Format: cell-based, human
Measurement context: Homo sapiens, SKNO-1, read-out: Antiproliferative activity EC50, SKNO-1
// units = nM; emit number, no label

As a guide, the following entries are already answered.
Compound: C[C@]12C=CC(=O)C=C1CC[C@@H]1[C@@H]2[C@@H](O)C[C@@]2(C)[C@H]1CC[C@]2(O)C(=O)CO
Assayed system: SKNO-1 cells
EC50 / nM: 150
--
Compound: C[C@@H]1C[C@H]2[C@@H]3CCC4=CC(=O)C=C[C@]4(C)[C@@]3(F)[C@@H](O)C[C@]2(C)[C@@]1(O)C(=O)CO
Assayed system: SKNO-1 cells
EC50 / nM: 29
--
Compound: C[C@H]1C[C@H]2[C@@H]3CCC4=CC(=O)C=C[C@]4(C)[C@@]3(F)[C@@H](O)C[C@]2(C)[C@@]1(O)C(=O)CO
Assayed system: SKNO-1 cells
EC50 / nM: 59

Continue with the next compound.
Answer with EC50 of C[C@]12CCC(=O)C=C1CC[C@@H]1[C@@H]2[C@@H](O)C[C@@]2(C)[C@H]1CC[C@]2(O)C(=O)CO [Hydrocortisone, hydrocortisone] measured for SKNO-1 cells. 410

====

System: Jurkat leukemia cells
Assay procedure: Antiproliferation assay
Format: cell-based, human
Measurement context: Homo sapiens, Jurkat, read-out: Antiproliferative activity EC50, Jurkat
pEC50: −log10 of the molar value.
Experimental endpoint: pEC50

Molecule: CC=CC(=O)N(CC)c1ccccc1C (mixture of isomers)
Experimental endpoint: pEC50
Result: < 4.30

Molecule: CN(C)/N=N/c1[nH]cnc1C(N)=O
Experimental endpoint: pEC50
Result: 4.82

Molecule: CC(=O)c1ccc2c(c1)N(CCCN(C)C)c1ccccc1S2
Experimental endpoint: pEC50
Result: < 4.30

Molecule: C[C@@H]1C[C@H]2[C@@H]3CCC4=CC(=O)C=C[C@]4(C)[C@@]3(F)[C@@H](O)C[C@]2(C)[C@@]1(O)C(=O)CO
Experimental endpoint: pEC50
Result: < 4.30

Molecule: COc1ccc2cc(CCC(C)=O)ccc2c1
Experimental endpoint: pEC50
Result: < 4.30

Molecule: C[C@]12CCC(=O)C=C1CC[C@@H]1[C@@H]2[C@@H](O)C[C@@]2(C)[C@H]1CC[C@]2(O)C(=O)CO [Hydrocortisone, hydrocortisone]
Experimental endpoint: pEC50
Result: < 4.30

Molecule: C=CCNC1=C2C[C@@H](C)C[C@H](OC)[C@H](O)[C@@H](C)/C=C(\C)[C@H](OC(N)=O)[C@@H](OC)/C=C\C=C(/C)C(=O)NC(=CC1=O)C2=O
Experimental endpoint: pEC50
Result: ~4.30

Molecule: COc1cc2ccc(=O)oc2cc1O
Experimental endpoint: pEC50
Result: < 4.30

Molecule: CCCNCC(O)COc1ccccc1C(=O)CCc1ccccc1 (stereo not drawn)
Experimental endpoint: pEC50
Result: < 4.30

Molecule: CO[C@H]1/C=C\C=C(/C)C(=O)NC2=CC(=O)C(NCCN(C)C)=C(C[C@@H](C)C[C@H](OC)[C@H](O)[C@@H](C)/C=C(\C)[C@@H]1OC(N)=O)C2=O
Experimental endpoint: pEC50
Result: 5.80

Answer with pEC50 of "C[C@]12C=CC(=O)C=C1CC[C@@H]1[C@@H]2[C@@H](O)C[C@@]2(C)[C@H]1CC[C@]2(O)C(=O)CO" measured for Jurkat leukemia cells. < 4.30

Answer with pEC50 of "C[C@H]1C[C@H]2[C@@H]3CCC4=CC(=O)C=C[C@]4(C)[C@@]3(F)[C@@H](O)C[C@]2(C)[C@@]1(O)C(=O)CO" measured for Jurkat leukemia cells. < 4.30

====

System: NB4 cells
Assay procedure: Antiproliferation assay
Format: cell-based, human
Measurement context: Homo sapiens, NB-4, read-out: Antiproliferative activity EC50, NB4
Experimental endpoint: pEC50
pEC50 is defined as minus the log10 of a concentration measured in mol/L.

Molecule: C=CCNC1=C2C[C@@H](C)C[C@H](OC)[C@H](O)[C@@H](C)/C=C(\C)[C@H](OC(N)=O)[C@@H](OC)/C=C\C=C(/C)C(=O)NC(=CC1=O)C2=O
Measured number: 6.38

Continue with the next compound.
Please report the measured pEC50 for "CO[C@H]1/C=C\C=C(/C)C(=O)NC2=CC(=O)C(NCCN(C)C)=C(C[C@@H](C)C[C@H](OC)[C@H](O)[C@@H](C)/C=C(\C)[C@@H]1OC(N)=O)C2=O" 7.26
